Target: human CYP11B2 (Homo sapiens (Human))
Sequence (P19099 25-503): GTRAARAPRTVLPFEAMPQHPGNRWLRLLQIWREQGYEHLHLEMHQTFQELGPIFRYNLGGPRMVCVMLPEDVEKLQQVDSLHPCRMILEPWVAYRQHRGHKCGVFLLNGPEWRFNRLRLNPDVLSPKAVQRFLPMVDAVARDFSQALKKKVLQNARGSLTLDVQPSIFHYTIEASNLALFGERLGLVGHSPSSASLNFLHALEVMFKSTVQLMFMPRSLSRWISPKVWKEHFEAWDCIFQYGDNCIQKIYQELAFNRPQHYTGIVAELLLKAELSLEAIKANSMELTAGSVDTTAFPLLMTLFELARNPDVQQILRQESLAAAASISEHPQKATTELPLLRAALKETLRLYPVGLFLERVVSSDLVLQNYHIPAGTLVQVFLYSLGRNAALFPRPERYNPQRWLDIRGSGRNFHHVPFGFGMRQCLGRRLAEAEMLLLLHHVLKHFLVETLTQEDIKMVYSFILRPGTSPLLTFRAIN
Experiment: G-402 cellular enzyme assay, human CYP11B2 (aldosterone release)
Conditions: G-402 cells, 1 μM Deoxycorticosterone
pEC50: −log10 of the molar value.
readout_label: pEC50

Worked examples follow.
O=C(CC1CCc2c(-c3ccc(C(F)(F)F)c(F)c3)cncc21)Nc1ccon1 (racemic); 7.77
O=C(CC1CCc2c(-c3ccc(C(F)(F)F)c(F)c3)cncc21)N1CCOCC1 (racemic); 7.70

A. CN(C(=O)CC1CCc2c(-c3ccc(C(F)(F)F)cc3F)cncc21)C1CC1 (racemic)
B. COC1CN(C(=O)CC2CCc3c(-c4ccc(C(F)(F)F)cc4F)cncc32)C1 (racemic)
C. O=C(CC1CCc2c(-c3ccc(C(F)(F)F)c(F)c3)cncc21)N1CCCCC1 (racemic)
D. O=C(CC1CCc2c(-c3ccc(C(F)(F)F)c(F)c3)cncc21)NCC1CC1 (racemic)
-- ask Hey, can you sort those molecules up there by pEC50, smallest first? I'd appreciate it if you listed the labels in the requested order.
-- reply B, D, A, C
